Data origin, for the record: patent US20200157236A1

Below is a list of entries, each paired with its recorded Kd value.
target: T1, purified ALK protein (BLitz, Table 20) (Homo sapiens (Human), UniProt Q9UM73 19-1038, limits assumed); experiment: BLI (BLitz), mAb on Protein A tip, purified ALK in solution
T1 construct: also called purified ALK proteins
T1 sequence (Q9UM73 19-1038 limits assumed): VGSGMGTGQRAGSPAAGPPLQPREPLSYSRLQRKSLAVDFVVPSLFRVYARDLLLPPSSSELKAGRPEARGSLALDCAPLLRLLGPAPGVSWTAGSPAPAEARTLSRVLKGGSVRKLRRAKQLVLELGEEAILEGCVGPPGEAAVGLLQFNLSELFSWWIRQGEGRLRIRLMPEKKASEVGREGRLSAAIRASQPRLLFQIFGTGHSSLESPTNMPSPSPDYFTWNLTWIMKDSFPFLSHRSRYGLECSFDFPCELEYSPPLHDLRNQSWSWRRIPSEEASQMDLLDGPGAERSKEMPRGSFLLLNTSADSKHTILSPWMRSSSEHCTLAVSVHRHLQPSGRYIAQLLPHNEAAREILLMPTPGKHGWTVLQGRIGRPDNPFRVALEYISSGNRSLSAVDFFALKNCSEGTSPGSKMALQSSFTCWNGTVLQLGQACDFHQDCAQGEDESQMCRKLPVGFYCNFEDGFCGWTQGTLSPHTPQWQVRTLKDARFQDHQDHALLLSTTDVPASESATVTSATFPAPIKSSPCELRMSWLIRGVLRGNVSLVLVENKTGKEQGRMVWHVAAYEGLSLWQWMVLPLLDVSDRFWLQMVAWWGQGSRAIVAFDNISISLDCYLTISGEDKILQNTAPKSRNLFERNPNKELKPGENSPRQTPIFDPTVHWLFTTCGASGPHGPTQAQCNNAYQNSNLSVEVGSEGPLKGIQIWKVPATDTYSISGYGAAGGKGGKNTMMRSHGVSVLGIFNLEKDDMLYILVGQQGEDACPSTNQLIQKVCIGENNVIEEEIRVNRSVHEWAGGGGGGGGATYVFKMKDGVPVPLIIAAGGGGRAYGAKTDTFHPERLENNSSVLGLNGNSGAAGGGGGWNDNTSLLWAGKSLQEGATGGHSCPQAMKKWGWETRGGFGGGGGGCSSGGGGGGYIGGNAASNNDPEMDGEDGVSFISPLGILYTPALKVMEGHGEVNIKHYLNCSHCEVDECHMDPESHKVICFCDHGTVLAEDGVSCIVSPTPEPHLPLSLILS
Your answer is read as nM, so omit the unit and give the number.

{"columns": ["binder", "quantityUnit", "Kd"],
 "data": [
  ["Ab401 (antibody, V domains shown, humanized) VH: EVQLVQSGAEVKKPGTSVKLSCKASGYTFTSSAMQWVKQAPGQGLEWIGYIKPSSGYTKYNQKFKDKATLTADKSTSTAYMELSSLRSEDTAVYYCARDYYGSSSWFAYWGQGTLVTVSS VL: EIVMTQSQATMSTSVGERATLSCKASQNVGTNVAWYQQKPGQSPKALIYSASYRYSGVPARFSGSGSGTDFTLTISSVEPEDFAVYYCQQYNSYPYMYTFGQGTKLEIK", "nM", 1060],
  ["Ab414 (antibody, V domains shown, humanized) VH: EVQLVQSGAEVKKPGTSVKLSCKASGYTFTSYWMHWVRQARGQRLEWIGYIKPSSGYTKYAQKFQERVTLTADKSTSTAYMELSSLRSEDTAVYYCARDYYGSSSWFAYWGQGTLVTVSS VL: EIVMTQSQATLSTSPGERATLSCKASQNVGTNVAWYQQKPGQAPRALIYSASYRYSGVPARFSGSGSGTDFTLTISSVEPEDFAVYYCQQYNSYPYMYTFGQGTKLEIK", "nM", 142]
]}

In the following, a different binder is considered.
Quick one: Kd for Ab356 (antibody, V domains shown, humanized) VH: EVQLVQSGAEVKKPGASVKLSCKASGYTFTSYWMHWVRQAPGQGLEWIGYIKPSSGYTKYNQKFKDKATLTADKSTSTAYMELRSLRSDDTAVYYCARDYYGSSSWFAYWGQGTLVTVSS VL: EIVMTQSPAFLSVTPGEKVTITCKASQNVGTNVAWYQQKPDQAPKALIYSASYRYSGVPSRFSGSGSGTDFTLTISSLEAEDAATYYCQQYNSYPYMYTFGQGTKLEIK ?
128
